target: IDH (endogenous IDH1 R132C) in HT1080 cell (Homo sapiens, UniProt O75874, R132C); construct: which harbor endogenous heterozygous IDH1 R132C and R132H mutation respectively and accumulate D-2-HG; experiment: Cell-based assay for IDH inhibition (decrease of D-2-HG) in HT1080 cells; conditions: human fibrosarcoma cell line HT1080, 16 hours treatment, D-2-HG by LC-MS, in triplet
Sequence (O75874 2-414 R132C): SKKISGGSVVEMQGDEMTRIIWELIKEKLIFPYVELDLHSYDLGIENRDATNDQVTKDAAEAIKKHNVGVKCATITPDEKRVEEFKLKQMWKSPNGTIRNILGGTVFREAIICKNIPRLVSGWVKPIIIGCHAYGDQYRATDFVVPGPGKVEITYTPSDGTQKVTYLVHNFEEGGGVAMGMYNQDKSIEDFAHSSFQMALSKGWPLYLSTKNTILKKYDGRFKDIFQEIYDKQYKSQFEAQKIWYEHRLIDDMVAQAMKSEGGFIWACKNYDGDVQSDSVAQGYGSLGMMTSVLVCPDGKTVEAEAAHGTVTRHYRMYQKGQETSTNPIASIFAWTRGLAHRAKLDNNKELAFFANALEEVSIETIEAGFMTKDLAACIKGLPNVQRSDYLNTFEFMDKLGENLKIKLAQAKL
pIC50: −log10 of the molar value.
reported.metric: pIC50

# cpd.smiles, pIC50
rows = [
    ("CCN1Cc2c(ccnc2N[C@@H](C)c2cc(F)c(-c3ccnc(Cl)c3)cc2F)C1=O", "6.00 to 6.30"),
    ("CCN1Cc2c(ccnc2N[C@@H](C)c2cc(F)c(-c3cc(C(C)(C)C)ccn3)cc2F)C1=O", "> 7.00"),
    ("CCN1Cc2c(ccnc2N[C@@H](C)c2cc(F)c(-c3cc4c(cn3)COC4(C)C)cc2F)C1=O", "> 7.00"),
    ("CCN1Cc2c(ccnc2N[C@@H](C)c2ccc(Oc3ccc4c(c3)ncn4C)c(F)c2)C1=O", "< 6.00"),
    ("CCN1Cc2c(ccnc2N[C@@H](C)c2cc(F)c(-c3ccnc(C(C)(C)C#N)c3)cc2F)C1=O", "6.30 to 7.00"),
]

Identify measured pIC50 corresponding to `CCN1Cc2c(ccnc2N[C@@H](C)c2cc(F)c(-c3ccnc(C(F)(F)C(F)(F)F)c3)cc2F)C1=O`
6.30 to 7.00

Identify measured pIC50 corresponding to `CCN1Cc2c(ccnc2N[C@@H](C)c2cc(F)c(-c3ccnc(CC4CC4)c3)cc2F)C1=O`
6.30 to 7.00

###

biological target: IDH1 R132C (Homo sapiens, UniProt O75874, R132C); construct: 6xHis; test: Biochemical assay for IDH inhibition (NADPH fluorescence), mutant IDH1 R132C; conditions: 25 nM IDH1-R132C, 1 hour pre-incubation, in triplet
Sequence (O75874 whole entry R132C): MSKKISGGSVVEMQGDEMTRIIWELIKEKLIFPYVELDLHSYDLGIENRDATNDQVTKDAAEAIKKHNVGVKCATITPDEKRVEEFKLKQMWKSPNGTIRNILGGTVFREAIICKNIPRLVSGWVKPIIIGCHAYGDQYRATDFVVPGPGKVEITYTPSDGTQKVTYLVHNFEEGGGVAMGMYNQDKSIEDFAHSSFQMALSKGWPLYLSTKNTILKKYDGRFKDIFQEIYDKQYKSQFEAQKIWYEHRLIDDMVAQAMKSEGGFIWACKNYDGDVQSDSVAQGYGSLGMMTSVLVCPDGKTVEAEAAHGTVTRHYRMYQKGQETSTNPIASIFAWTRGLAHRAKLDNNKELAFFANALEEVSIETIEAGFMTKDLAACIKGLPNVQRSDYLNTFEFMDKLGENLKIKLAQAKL
reported.metric: IC50

Completed entries (count: 5):
# cpd.smiles, reported.metric, reported
rows = [
    ("CCN1Cc2c(N[C@@H](C)c3ccc(-c4ccc(F)c(C)c4)c(F)c3)ncc(F)c2C1=O", "IC50", "500 to 1000 nM"),
    ("CCN1Cc2c(ccnc2N[C@@H](C)c2cc(F)c(-c3cc(C(F)(F)F)c(OC)cn3)cc2F)C1=O", "IC50", "< 100 nM"),
    ("C[C@H](Nc1nccc2c1CN(C(CF)CF)C2=O)c1ccc(-c2ccnc(C(C)(C)C)c2)c(F)c1", "IC50", "100 to 500 nM"),
    ("CCN1Cc2c(ccnc2N[C@@H](C)c2cc(F)c(-c3cc(C(C)(C)F)c(F)c(C)n3)cc2F)C1=O", "IC50", "< 100 nM"),
    ("CCN1Cc2c(ccnc2N[C@@H](C)c2cc(F)c(-c3ccnc(C4COC4)c3)cc2F)C1=O", "IC50", "> 1000 nM"),
]

Identify measured IC50 corresponding to `CCN1Cc2c(ccnc2N[C@@H](C)c2cc(F)c(-c3cncc(C(C)(C)C)c3)cc2F)C1=O`
< 100 nM

Identify measured IC50 corresponding to `CCN1Cc2c(ccnc2N[C@@H](C)c2ccc(Oc3cccnc3)c(F)c2)C1=O`
> 1000 nM
